A collection of binders and their measured SPOT intensity
Molecular target: T1, Boi1, P38041
T1 sequence (P38041 1-86, looked up): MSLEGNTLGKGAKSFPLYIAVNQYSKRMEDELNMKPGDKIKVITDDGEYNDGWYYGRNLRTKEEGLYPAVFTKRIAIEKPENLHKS
Assay: SPOT array
Settings: median of control spots 1162
PROPERTY_LABEL: SPOT intensity

SSAAPPPPPRRATPE    1
LLIRWLILMPLVGSR    23
APKHAPPPVPNETDN    0
TPTSGPPLLPPRNTM    2
GLRRARYKFPGQQKI    3
PSPSSSPPPIPKTAN    1
LRIKRKPVQTFFEFI    11
LLLLFVPDSPYDPAI    1
QRIRKIPGIPLMSVG    0
GATNNAPTLPKRKNP    12
PLRRTVMSLPGNHDI    0
FLIKFTPKFPQSIDH    7
ITHRLRISIPGITGR    1
VLRFLGFPLPIFEKG    1
NNQRRKPLLLNIGDH    5
RRRRRPHRIERPLSN    9
RVRKTHVPASKRPSG    1
RSRRSSFAYPQQVAI    1
RPVPRRPSQPLNTLS    0
FHLNPKRSAVLYDRP    0
NPTKSPPPPPSPSTM    0
FYNRTAFQLPGDARV    0
KDKKTKPTPPPKPSH    0
EQEEIAPSLPSRNSI    0
FFRRSELYLPNSSKA    3
SRQAIPPPVPNRPGG    0
PIVPSSPAPPLPLSG    0
EAEEAAPQLPSRSSA    1
NLDRSKISLPDFDDE    7
VNFRRIPTGPDSPPT    0
